testTarget: T1, recombinant His-tagged Can f1 (dog (Canis familiaris), UniProt O18873 19-174)
T1 construct: also called Can f1-His; recombinant Can f1; not shown: His tag
T1 sequence (O18873 19-174 limits assumed): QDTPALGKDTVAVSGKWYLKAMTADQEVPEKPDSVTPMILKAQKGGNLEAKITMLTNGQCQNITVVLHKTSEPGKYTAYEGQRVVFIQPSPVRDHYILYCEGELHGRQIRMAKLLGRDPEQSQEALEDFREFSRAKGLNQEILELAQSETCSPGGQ
experimentalProtocol: ELISA, antigen coated
Give EC50 for every item shown.
One number for each entry, in µg/mL.

Examples from the recorded data:
SDAB22112-2-D08 (VHH, anti-Can f1 alpaca VHH) VHH: QVKLEESGGGLVQAGGSLRLSCVASGRTFSRWHTGWYRQAPGREREFVATLRASGGDTYYADSVKGRFTISRDNAKNTVYLQMNSLKPEDTAVYYCNVWANWGAPPSDFSSWGQGTQVTVSS | 5.84
SDAB22112-1-C10 (VHH, anti-Can f1 alpaca VHH) VHH: QLQLVESGGGLVQPGGSLRLSCAASGFTFSSYSMSWYRQAPGKERELVATIDTDGRTNYADSVKGRFTISRDNAKNSVYLQMNSLKPEDTAVYYCNRRQLGVDYWGQGTQVTVSS | 9.4

Reported EC50 ( SDAB22112-1-C9 (VHH, anti-Can f1 alpaca VHH) VHH: QLQLVESGGGLVQPGGSLRLSCVGSGFTFSLASMGWYRQAPGKEREWVASISSLDASTNYADSVKGRFTISRDNAKRMVYLQMNNLKSEDTAVYYCKAMNYWGKGTQVTVSS ) = 13.1
